Catalogue of compounds with associated remaining at 1 h, 100 µM
- Experiment summary: Enzymatic stability assessed as porcine pepsin-mediated compound hydrolysis by measuring parent compound remaining at 100 uM incubated for 1 hr by LC-MS/MS analysis
- Assay type: ADME, Sus scrofa
- Experimental conditions: pig, read-out: Stabilty
Numbered stars: 1 amine (or outer) side, 2 acyl side, 3 side chain; on linkers, the order of the positions; unused ones are H or OH. Square brackets hold non-standard residues; d marks the D form. Peptide text beside a SMILES is read from it. Trp(5-F) = N[C@@H](Cc1c[nH]c2ccc(F)cc12)C(=O)O; Lys(Me3) = C[N+](C)(C)CCCC[C@H](N)C(=O)O; X1 = O=C(CCSCc1cccc(CSCCN[*:1])c1)[*:2]; αMeP = C[C@@]1(C(=O)O)CCCN1
In your response, the unit should come after the numeric value.

Example results:
INSERT INTO measurements (compound, test_result) VALUES
  ('NCCCC[C@@H]1NC(=O)CCSCc2cccc(c2)CSC[C@@H](C(N)=O)NC(=O)[C@@H]2CCCN2C(=O)[C@H](Cc2ccc(O)cc2)NC(=O)[C@H](Cc2c[nH]cn2)NC(=O)[C@H](CC(=O)O)NC(=O)[C@H](Cc2c[nH]c3ccc(F)cc23)NC(=O)[C@H](Cc2c[nH]c3ccc(F)cc23)NC(=O)CNC1=O', '95%'),
  ('COc1ccc(C[C@@H]2NC(=O)[C@H]([C@@H](C)O)NC(=O)[C@@H]3CCCN3C(=O)[C@@H]3Cc4cn(c5ccc(F)cc45)Cc4cn(nn4)-c4cc(cc(c4)CSCCC(=O)N[C@@H](C)C(=O)N[C@H](C)C(=O)N[C@@H](Cc4c[nH]c5ccc(F)cc45)C(=O)N3)CSCCNC(=O)[C@]3(C)CCCN3C2=O)cc1', '98.9%');

Below: the item to evaluate.
Quick one: remaining at 1 h, 100 µM of COc1ccc(C[C@@H]2NC(=O)[C@H](Cc3cnc[nH]3)NC(=O)[C@H](CC(=O)O)NC(=O)[C@H](Cc3c[nH]c4ccc(F)cc34)NC(=O)[C@H](Cc3c[nH]c4ccc(F)cc34)NC(=O)[C@@H](C)NC(=O)[C@H](CCCC[N+](C)(C)C)NC(=O)CCSCc3cccc(c3)CSCCNC(=O)[C@]3(C)CCCN3C2=O)cc1 (cyclo(DHY(Me)[αMeP][X1][Lys(Me3)][dA][Trp(5-F)][Trp(5-F)])) ? 87.5%
